- assayed target: CDK4/cyclinD1 (Homo sapiens)
- Sequence (P11802 whole entry): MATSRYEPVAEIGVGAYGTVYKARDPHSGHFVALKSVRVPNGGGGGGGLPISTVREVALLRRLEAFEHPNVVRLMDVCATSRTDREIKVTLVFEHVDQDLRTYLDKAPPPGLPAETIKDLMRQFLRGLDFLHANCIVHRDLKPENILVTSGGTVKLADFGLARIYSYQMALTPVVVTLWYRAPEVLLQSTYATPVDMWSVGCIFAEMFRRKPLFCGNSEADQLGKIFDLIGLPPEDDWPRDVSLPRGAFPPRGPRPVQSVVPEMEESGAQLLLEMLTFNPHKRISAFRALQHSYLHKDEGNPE
- Sequence (P24385 whole entry partner): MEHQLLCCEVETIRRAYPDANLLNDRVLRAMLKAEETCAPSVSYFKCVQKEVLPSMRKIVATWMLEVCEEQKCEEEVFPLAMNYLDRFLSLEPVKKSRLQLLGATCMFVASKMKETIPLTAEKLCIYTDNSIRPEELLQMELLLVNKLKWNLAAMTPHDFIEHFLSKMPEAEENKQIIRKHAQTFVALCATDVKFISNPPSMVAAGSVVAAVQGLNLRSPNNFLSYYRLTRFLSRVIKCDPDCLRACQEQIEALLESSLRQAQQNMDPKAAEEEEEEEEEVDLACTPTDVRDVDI
- assay comment: In vitro filtration assay for CDK4 inhibitory activity (pRb phosphorylation, [33P]-ATP)
- Format: biochemical
- test parameters: GST-pRb substrate, 1 μM unlabeled ATP, 25° C. 45 minutes, read-out: cdk4 filter (pIC50) (converted)
Just a reminder that ties go to rule not met: only IC50 strictly below 600 nM counts as rule met.

Here are 5 compounds together with their reported answers.
[
  {
    "compound": "CC(C)(C)OC(=O)N(c1ccc(CN2CCOCC2)cc1)c1ncc2cnn([C@H]3C[C@@H]4CC[C@H]3C4)c2n1",
    "label value": "rule not met"
  },
  {
    "compound": "c1cc(Nc2ncc3cnn(C4CCOCC4)c3n2)ccc1CNCCN1CCOCC1",
    "label value": "rule not met"
  },
  {
    "compound": "c1cc(Nc2ncc3cnn(C4CCCCC4)c3n2)ccc1CN1CCOCC1",
    "label value": "rule not met"
  },
  {
    "compound": "CN1CCN(Cc2ccc(N(C(=O)OC(C)(C)C)c3ncc4cnn([C@H]5C[C@@H]6CC[C@H]5C6)c4n3)cc2)CC1",
    "label value": "rule not met"
  },
  {
    "compound": "CN1CCN(c2ccc(Nc3ncc4cnn(C5CCCC5)c4n3)cc2)CC1",
    "label value": "rule met"
  }
]

stdin: Dear colleague, could you confirm whether IC50 of OCCN1CCC(NCc2ccc(Nc3ncc4cnn(C5CCCCC5)c4n3)cc2)CC1 falls below 600 nM? Thanks.
stdout: rule met

stdin: Dear colleague, could you confirm whether IC50 of c1cc(Nc2ncc3cnn([C@H]4C[C@@H]5CC[C@H]4C5)c3n2)ccc1CN1CCOCC1 falls below 600 nM? Thanks.
stdout: rule met

stdin: Dear colleague, could you confirm whether IC50 of CC(C)(C)OC(=O)N1CCC(N(Cc2ccc(Nc3ncc4cnn(C5CCCCC5)c4n3)cc2)C(=O)OC(C)(C)C)CC1 falls below 600 nM? Thanks.
stdout: rule not met

stdin: Dear colleague, could you confirm whether IC50 of O=C(c1ccc(Nc2ncc3cnn(C4CCCCC4)c3n2)cc1)N1CCOCC1 falls below 600 nM? Thanks.
stdout: rule met
